# testTarget: T1, Swi5-Sfr1 complex (UniProt Q9UUB7 1-85; Q9USV1 1-299)
# T1 construct: Swi5, subunit of the Swi5-Sfr1 complex; Sfr1, subunit of the Swi5-Sfr1 complex; Over-expressed and purified as a preformed complex; detected in the co-IP by blots for Sfr1 and Swi5; No tag is mentioned; also called Swi5-Sfr1 auxiliary factor; source: E. coli BL21-Codonplus(DE3) RIPL, purified as a complex (ammonium sulfate, Q Sepharose, HiTrap Heparin, Superdex 200)
# T1 sequence (looked up) 1: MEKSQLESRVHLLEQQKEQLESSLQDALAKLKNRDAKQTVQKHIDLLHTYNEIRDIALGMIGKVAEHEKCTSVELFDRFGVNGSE
# T1 sequence (looked up) 2: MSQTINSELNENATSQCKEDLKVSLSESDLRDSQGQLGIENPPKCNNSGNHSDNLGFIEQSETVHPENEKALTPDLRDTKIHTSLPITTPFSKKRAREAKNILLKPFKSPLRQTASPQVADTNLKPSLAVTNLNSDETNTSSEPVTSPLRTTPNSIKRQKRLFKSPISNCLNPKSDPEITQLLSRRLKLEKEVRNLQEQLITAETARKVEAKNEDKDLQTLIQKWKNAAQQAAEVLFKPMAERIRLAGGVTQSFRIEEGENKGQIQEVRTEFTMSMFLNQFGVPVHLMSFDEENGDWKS
# assay: co-IP; purified Rad51 (2.5 uM) and Swi5-Sfr1 (2.5 uM) mixed in 30 mM Tris-HCl pH 7.5, 20 mM KCl, 3 mM MgCl2, 1 mM DTT, 5% glycerol, 0.05% NP-40, 30 min at 4 °C; precipitated with rabbit anti-Rad51 antibody and protein G magnetic beads; western blots for Rad51, Sfr1 and Swi5
# conditionsUsed: both partners purified
valueType: binding result

binder="Rad51-S2 mutant (R324A and K334A in site II) (natural protein, Schizosaccharomyces pombe, UniProt P36601 1-365, looked up, Rad51 recombinase, Schizosaccharomyces pombe, with R324A and K334A in site II; source: E. coli BL21-Codonplus(DE3) RIPL, purified (same procedure as wild-type Rad51)) MADTEVEMQVSAADTNNNENGQAQSNYEYDVNVQDEEDEAAAGPMPLQMLEGNGITASDIKKIHEAGYYTVESIAYTPKRQLLLIKGISEAKADKLLGEASKLVPMGFTTATEYHIRRSELITITTGSKQLDTLLQGGVETGSITELFGEFRTGKSQICHTLAVTCQLPIDMGGGEGKCLYIDTEGTFRPVRLLAVADRYGLNGEEVLDNVAYARAYNADHQLELLQQAANMMSESRFSLLVVDSCTALYRTDFSGRGELSARQMHLARFMRTLQRLADEFGIAVVITNQVVAQVDGISFNPDPKKPIGGNILAHSSTTRLSLAKGRGEQRICAIYDSPCLPESEAIFAINSDGVGDPKEIIAPV" valuetype="binding result" recordedmeasurement=binds
